Below, each entry is listed alongside its reported melting point.

{"Cpd smiles": "CCCn1cc(Cc2ccc(C(=O)NS(=O)(=O)c3ccccc3C)cc2OC)c2cc(CCCC(=O)N(C)C)ccc21", "melting point": "94 to 96 °C"}

*Q* Give reported melting point value for `CN1C(=O)[C@H](NC(=O)c2cc3cc(Cl)ccc3[nH]2)N=C(c2ccccc2)c2ccccc21`
*A* 160 to 164 °C

*Q* Give reported melting point value for `CN(C)c1ccc(I)nn1`
*A* 135 °C

* * *

Assay endpoint: melting point

{"Compound": "CCOC(=O)c1sc(-c2ccccc2)nc1O", "Assay endpoint": "melting point", "Result": "114 to 116 °C"}
{"Compound": "CC=Cc1c(-c2ccc(C(C)(C)C)cc2)[nH]c2nccnc12", "Assay endpoint": "melting point", "Result": "207 to 208 °C"}
{"Compound": "CCn1nnc2cc3c(N4CCN(C(=O)Nc5ccc(Oc6ccccc6)cc5)CC4)ncnc3cc21", "Assay endpoint": "melting point", "Result": "167 to 168 °C"}
{"Compound": "CCC(Br)C(=O)Nc1c(C)cccc1C (stereo not drawn)", "Assay endpoint": "melting point", "Result": "180 to 190 °C"}
{"Compound": "O=[N+]([O-])c1ccc(C2SCCCS2)c(CO)c1", "Assay endpoint": "melting point", "Result": "130 to 131 °C"}

*Q* Give reported melting point value for O=C1N(Cc2ncccc2C(F)(F)F)c2ccccc2C12COc1c2ccc2c1OCCO2 (stereo not drawn)
*A* 206 to 207 °C

*Q* Give reported melting point value for `Cc1cccc(OCCCN2CCC(OC(c3ccccc3)c3ccccc3)CC2)c1NS(C)(=O)=O`
*A* 132 °C

*Q* Give reported melting point value for `COc1cc(CCNC(=O)C(F)(F)F)ccc1N`
*A* 80 to 81 °C
